target: Ba/F3 cells containing Ros1 wild-type protein (Homo sapiens, UniProt P08922, cells depend on it, form not given); construct: The background only speaks of 'a number of different unrelated proteins' and names SLC34A2-ROS1 for HCC78 cells; assay: Ba/F3-Ros1 cell proliferation assay, wild-type Ros1; assay type: cell-based, murine; conditions: without IL-3
Sequence (P08922 whole entry, stated change not applied): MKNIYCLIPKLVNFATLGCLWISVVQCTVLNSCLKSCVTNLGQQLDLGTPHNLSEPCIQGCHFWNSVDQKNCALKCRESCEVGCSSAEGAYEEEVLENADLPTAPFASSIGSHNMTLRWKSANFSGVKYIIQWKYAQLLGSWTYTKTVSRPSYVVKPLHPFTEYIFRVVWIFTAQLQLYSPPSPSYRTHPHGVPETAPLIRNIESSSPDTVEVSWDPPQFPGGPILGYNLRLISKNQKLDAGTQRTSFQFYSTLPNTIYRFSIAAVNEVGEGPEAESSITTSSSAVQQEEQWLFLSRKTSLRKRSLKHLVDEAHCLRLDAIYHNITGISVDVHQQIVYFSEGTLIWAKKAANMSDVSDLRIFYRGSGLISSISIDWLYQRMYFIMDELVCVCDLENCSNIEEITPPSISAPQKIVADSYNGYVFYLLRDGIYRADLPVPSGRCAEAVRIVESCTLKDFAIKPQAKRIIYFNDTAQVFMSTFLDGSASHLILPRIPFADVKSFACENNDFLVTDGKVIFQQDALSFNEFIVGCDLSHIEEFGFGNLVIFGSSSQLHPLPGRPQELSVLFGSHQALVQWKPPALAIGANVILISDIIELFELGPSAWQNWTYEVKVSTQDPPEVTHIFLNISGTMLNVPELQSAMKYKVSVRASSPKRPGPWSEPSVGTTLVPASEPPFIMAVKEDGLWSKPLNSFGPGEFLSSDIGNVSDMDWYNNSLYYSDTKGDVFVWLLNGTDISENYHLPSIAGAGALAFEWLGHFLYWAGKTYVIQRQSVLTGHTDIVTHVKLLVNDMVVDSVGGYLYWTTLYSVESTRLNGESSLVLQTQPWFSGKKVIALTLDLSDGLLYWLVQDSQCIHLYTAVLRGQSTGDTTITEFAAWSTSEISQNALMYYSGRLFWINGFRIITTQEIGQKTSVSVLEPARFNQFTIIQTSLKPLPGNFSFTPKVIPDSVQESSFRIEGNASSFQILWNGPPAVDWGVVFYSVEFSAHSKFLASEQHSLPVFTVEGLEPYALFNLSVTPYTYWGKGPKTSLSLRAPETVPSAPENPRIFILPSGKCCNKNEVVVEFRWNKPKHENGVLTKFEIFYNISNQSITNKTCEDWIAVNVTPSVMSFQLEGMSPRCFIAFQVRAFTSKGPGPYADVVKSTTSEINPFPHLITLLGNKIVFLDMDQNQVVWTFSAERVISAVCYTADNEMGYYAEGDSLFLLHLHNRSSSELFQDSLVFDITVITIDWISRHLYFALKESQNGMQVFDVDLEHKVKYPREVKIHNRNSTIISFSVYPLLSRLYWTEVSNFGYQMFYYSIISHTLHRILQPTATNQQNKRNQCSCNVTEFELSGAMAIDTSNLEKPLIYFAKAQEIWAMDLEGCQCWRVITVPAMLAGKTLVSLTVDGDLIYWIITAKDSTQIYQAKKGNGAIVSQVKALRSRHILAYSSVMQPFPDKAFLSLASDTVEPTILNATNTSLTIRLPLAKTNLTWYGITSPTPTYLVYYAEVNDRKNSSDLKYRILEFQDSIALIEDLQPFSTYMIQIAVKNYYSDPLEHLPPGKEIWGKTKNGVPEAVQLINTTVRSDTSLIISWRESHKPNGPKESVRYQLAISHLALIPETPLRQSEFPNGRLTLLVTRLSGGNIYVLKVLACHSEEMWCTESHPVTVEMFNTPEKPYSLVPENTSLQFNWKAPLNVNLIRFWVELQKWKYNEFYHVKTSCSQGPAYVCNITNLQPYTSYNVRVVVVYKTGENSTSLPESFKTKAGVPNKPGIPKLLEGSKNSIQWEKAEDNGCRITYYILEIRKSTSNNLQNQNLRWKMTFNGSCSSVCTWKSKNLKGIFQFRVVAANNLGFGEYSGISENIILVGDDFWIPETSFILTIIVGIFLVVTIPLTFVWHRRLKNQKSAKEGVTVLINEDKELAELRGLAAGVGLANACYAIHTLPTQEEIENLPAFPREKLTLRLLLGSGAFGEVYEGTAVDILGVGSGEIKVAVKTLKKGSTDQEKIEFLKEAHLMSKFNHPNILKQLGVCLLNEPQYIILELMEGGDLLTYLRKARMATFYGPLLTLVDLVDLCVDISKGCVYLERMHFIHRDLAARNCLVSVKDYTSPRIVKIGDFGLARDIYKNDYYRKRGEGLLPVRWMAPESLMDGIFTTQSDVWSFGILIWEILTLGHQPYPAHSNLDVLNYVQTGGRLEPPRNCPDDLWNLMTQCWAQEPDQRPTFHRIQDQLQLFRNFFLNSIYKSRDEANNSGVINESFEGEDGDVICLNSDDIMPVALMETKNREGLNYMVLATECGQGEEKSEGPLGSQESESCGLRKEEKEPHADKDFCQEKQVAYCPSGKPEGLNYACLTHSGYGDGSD
REPORTED PROPERTY: BaF3-ROS1-IL3 pIC50

molecule="CC(C)c1ccc(COc2ccc(-c3c(-c4ccnc(CO)c4)nn4c3C(=O)NCC4)cc2)cc1 [Compound 233]" comparison_sign== quantitative_readout=6.5
molecule="CC(C)c1ccc(COc2ccc(-c3c(-c4ccncc4)nn4c3C(=O)N(CC(C)(C)O)CC4)cc2)cc1 [Compound 51]" comparison_sign== quantitative_readout=7.2
molecule="CC(C)c1ccc(COc2ccc(-c3c(-c4ccncc4)nn4c3C(=O)N(CCO)CC4)cc2)cc1C#N [Compound 87]" comparison_sign== quantitative_readout=7.3
molecule="Cc1cc(-c2c(-c3ccncc3)nn3c2C(=O)NCC3)cc(C)c1OCc1ccc(C(C)C)cc1 [Compound 29]" comparison_sign=< quantitative_readout=5

###

REPORTED PROPERTY: melting point (°C)

compound="CC(C)c1ccc(COc2ccc(-c3c(-c4ccncc4)nn4c3C(=O)N(CCS(C)(=O)=O)CC4)cn2)cc1 [Compound 213]" quantitative_readout=200
compound="CC(C)c1cc(F)c(COc2ccc(-c3c(-c4ccncc4)nn4c3C(=O)N(CC(O)CO)CC4)cc2)c(F)c1 (stereo not drawn) [Compound 96]" quantitative_readout=228
compound="COC(=O)c1cccc(COc2ccc(-c3c(-c4ccncc4)nn4c3C(=O)NCC4)cc2)c1 [Compound 131]" quantitative_readout=222
compound="COc1cc(-c2c(-c3ccncc3)nn3c2C(=O)NCC3)ncc1OCc1ccc(C(C)C)cc1 [Compound 72]" quantitative_readout=231
compound="COc1cc(-c2c(-c3ccncc3)nn3c2C(=O)NCC3)cnc1OCc1ccc(C(C)C)cc1 [Compound 8]" quantitative_readout=135
compound="COCCN1CCn2nc(-c3ccncc3)c(-c3ccc(OCc4ccc(C(C)C)cc4)cc3)c2C1=O [Compound 50]" quantitative_readout=167
compound="CC(C)c1ccc(COc2ccc(-c3c(-c4ccncc4)nn4c3C(=O)NCC4)cc2)cc1CCN [Compound 88]" quantitative_readout=181
compound="COc1cc(-c2c(-c3ccncc3)nn3c2C(=O)NCC3)ccc1OCc1ccc(C(C)C)cc1 [Compound 32]" quantitative_readout=187
compound="CNC(=O)CN1CCn2nc(-c3ccncc3)c(-c3ccc(OCc4ccc(C(C)C)cc4)cc3)c2C1 [Compound 174]" quantitative_readout=185
compound="N#Cc1cccc(COc2ccc(-c3c(-c4ccncc4)nn4c3C(=O)NCC4)cc2)c1 [Compound 124]" quantitative_readout=238
compound="CC1Cn2nc(-c3ccncc3)c(-c3ccc(OCc4ccc(C5CC5)cc4)cc3)c2C(=O)N1 (stereo not drawn) [Compound 189]" quantitative_readout=249
compound="CC(C)c1ccc(COc2ccc(-c3c(-c4ccnc5[nH]ccc45)nn4c3C(=O)N(CCO)CC4)cc2)cc1 [Compound 156]" quantitative_readout=219
compound="CC(C)Oc1ccc(COc2ccc(-c3c(-c4ccncc4)nn4c3C(=O)NCC4)cc2)cc1 [Compound 114]" quantitative_readout=252
compound="c1cc(-c2nn3c(c2-c2ccc(OCc4ccc(C5CC5)cc4)cc2)CNC2(CC2)C3)ccn1 [Compound 171]" quantitative_readout=152
compound="CC(C)c1ccc(COc2ccc(-c3c(-c4ccncn4)nn4c3C(=O)N(CCN)CC4)cc2)cc1 [Compound 165]" quantitative_readout=154
